- experiment.description: Apparent permeability in human jejunum
- Assay type: ADME, tissue-based
readout.type: Papp

I would be grateful if you could share the reported Papp for O=C(N[C@H]1CN(S(=O)(=O)c2ccccc2)C[C@@H]1C(=O)N[C@H]1CCCNC1)c1cc(-c2ccccc2Cl)on1 .
< 1 ×10⁻⁶ cm/s

* * *

- experiment.description: 1-octanol-aqueous buffer distribution coefficient, log D of the compound at pH 7.4
- Type: physicochemical
readout.type: logD
Please give the numeric answer without any surrounding text.

Some compounds with recorded logD:
compound	measured
Cc1ccc2[nH]c(C(=O)N[C@H]3CN(S(=O)(=O)c4ccccc4)C[C@H]3C(=O)NCCN(C)C)cc2c1 (racemic)	2.3
Cc1ccc2[nH]c(C(=O)N[C@H]3CN(S(=O)(=O)c4ccnnc4)C[C@@H]3C(=O)NCCN(C)C)cc2c1	0.7
Cc1ccc2[nH]c(C(=O)N[C@H]3CCN(S(=O)(=O)c4ccccc4Cl)C[C@@H]3C(=O)N[C@H]3CCCNC3)cc2c1	1.9
Cc1ccc2[nH]c(C(=O)N[C@H]3CCN(C(=O)c4cccnc4)C[C@@H]3C(=O)NCCN(C)C)cc2c1 (racemic)	0.7
Cc1ccc2[nH]c(C(=O)N[C@H]3CN(S(=O)(=O)c4ccccc4)C[C@@H]3C(=O)N[C@H]3CCCNC3)cc2c1	1.3

I would be grateful if you could share the reported logD for Cc1ccc2[nH]c(C(=O)N[C@H]3CN(S(=O)(=O)c4cnccn4)C[C@@H]3C(=O)NCCN(C)C)cc2c1 .
1

I would be grateful if you could share the reported logD for Cc1ccc2[nH]c(C(=O)N[C@H]3CN(S(=O)(=O)c4ccccc4)CC[C@H]3C(=O)NCCN(C)C)cc2c1 (racemic) .
1.9

I would be grateful if you could share the reported logD for Cc1ccc2[nH]c(C(=O)N[C@H]3CCN(S(=O)(=O)c4cccnc4)C[C@@H]3C(=O)NCCN(C)C)cc2c1 (racemic) .
1.3

I would be grateful if you could share the reported logD for Cc1ccc2[nH]c(C(=O)N[C@@H]3CCN(S(=O)(=O)c4ccccc4)C[C@@H]3C(=O)NCCN(C)C)cc2c1 (racemic) .
2.1

I would be grateful if you could share the reported logD for Cc1ccc2[nH]c(C(=O)N[C@@H]3CN(S(=O)(=O)c4ccccc4)C[C@H]3C(=O)NCCN(C)C)cc2c1 .
2.1

I would be grateful if you could share the reported logD for Cc1ccc2[nH]c(C(=O)N[C@H]3CN(S(=O)(=O)c4ccccc4)CC[C@@H]3C(=O)NCCN(C)C)cc2c1 (racemic) .
1.9

I would be grateful if you could share the reported logD for Cc1ccc2[nH]c(C(=O)N[C@H]3CCN(S(=O)(=O)c4ccccc4Cl)C[C@@H]3C(=O)N[C@H]3CCCN(C)C3)cc2c1 .
3.1

I would be grateful if you could share the reported logD for Cc1ccc2[nH]c(C(=O)N[C@H]3CN(S(=O)(=O)c4ccccc4)C[C@@H]3C(=O)NC[C@@H]3CCCN3C)cc2c1 .
2.3

I would be grateful if you could share the reported logD for Cc1ccc2[nH]c(C(=O)N[C@H]3CN(S(=O)(=O)c4ccccc4)C[C@@H]3C(=O)N[C@@H]3CCCNC3)cc2c1 .
1.3

I would be grateful if you could share the reported logD for Cc1ccc2[nH]c(C(=O)N[C@H]3CCN(S(=O)(=O)C4CC4)C[C@@H]3C(=O)NCCN(C)C)cc2c1 .
1

I would be grateful if you could share the reported logD for Cc1ccc2[nH]c(C(=O)N[C@H]3CCN(S(=O)(=O)N4CCOCC4)C[C@@H]3C(=O)NCCN(C)C)cc2c1 (racemic) .
1

I would be grateful if you could share the reported logD for Cc1ccc2[nH]c(C(=O)N[C@H]3Cc4ccccc4[C@@H]3C(=O)NCCN(C)C)cc2c1 .
2.4

I would be grateful if you could share the reported logD for O=C(N[C@H]1CN(S(=O)(=O)c2ccccc2)C[C@@H]1C(=O)N[C@H]1CCCNC1)c1cc(-c2ccccc2Cl)on1 .
1.9

I would be grateful if you could share the reported logD for Cc1ccc2[nH]c(C(=O)N[C@H]3CCN(S(=O)(=O)N4CCCCC4)C[C@@H]3C(=O)NCCN(C)C)cc2c1 .
2.3

I would be grateful if you could share the reported logD for Cc1ccc2[nH]c(C(=O)N[C@H]3CN(S(=O)(=O)c4ccccc4)C[C@@H]3C(=O)NC[C@H]3CCCN3)cc2c1 .
1

I would be grateful if you could share the reported logD for Cc1ccc2[nH]c(C(=O)N[C@H]3CN(S(=O)(=O)c4cn(C)nc4C)C[C@@H]3C(=O)NCCN(C)C)cc2c1 .
1.4

* * *

In this section, each of the molecules is paired with its reported Papp B→A.
- experiment.description: Apparent permeability across basolateral to apical side in human Caco2 cells at pH 7.4
- Assay type: ADME, cell-based
- protocol.conditions: Caco-2, pH 7.4

compound.structure	Papp B→A
Cc1ccc2[nH]c(C(=O)N[C@H]3CN(S(=O)(=O)c4ccccc4)C[C@@H]3C(=O)NC[C@H]3CCCN3C)cc2c1	2.7 ×10⁻⁶ cm/s
Cc1ccc2[nH]c(C(=O)N[C@H]3CN(S(=O)(=O)c4ccccc4)C[C@@H]3C(=O)N[C@@H]3CCCNC3)cc2c1	1.6 ×10⁻⁶ cm/s
Cc1ccc2[nH]c(C(=O)N[C@H]3CN(S(=O)(=O)c4ccccc4)C[C@@H]3C(=O)N[C@H]3CCCN(C)C3)cc2c1	16.3 ×10⁻⁶ cm/s

I would be grateful if you could share the reported Papp B→A for Cc1ccc2[nH]c(C(=O)N[C@H]3CN(S(=O)(=O)c4ccccc4)C[C@@H]3C(=O)NC[C@@H]3CCCN3C)cc2c1 .
19.3 ×10⁻⁶ cm/s

I would be grateful if you could share the reported Papp B→A for Cc1ccc2[nH]c(C(=O)N[C@H]3CCN(S(=O)(=O)c4ccccc4Cl)C[C@@H]3C(=O)N[C@H]3CCCNC3)cc2c1 .
1.4 ×10⁻⁶ cm/s

I would be grateful if you could share the reported Papp B→A for Cc1ccc2[nH]c(C(=O)N[C@H]3CCN(S(=O)(=O)c4ccccc4Cl)C[C@@H]3C(=O)N[C@H]3CCCN(C)C3)cc2c1 .
15.9 ×10⁻⁶ cm/s

I would be grateful if you could share the reported Papp B→A for Cc1ccc2[nH]c(C(=O)N[C@H]3CN(S(=O)(=O)c4ccccc4)C[C@@H]3C(=O)N[C@H]3CCCNC3)cc2c1 .
2 ×10⁻⁶ cm/s

I would be grateful if you could share the reported Papp B→A for Cc1ccc2[nH]c(C(=O)N[C@H]3CN(S(=O)(=O)c4ccccc4)C[C@@H]3C(=O)NC[C@H]3CCCN3)cc2c1 .
15.9 ×10⁻⁶ cm/s

I would be grateful if you could share the reported Papp B→A for Cc1ccc2[nH]c(C(=O)N[C@H]3CN(S(=O)(=O)c4ccccc4)C[C@@H]3C(=O)N[C@@H]3CCCN(C)C3)cc2c1 .
22.8 ×10⁻⁶ cm/s

* * *

- experiment.description: Apparent permeability in rat jejunum
- Type: ADME, tissue-based
readout.type: Papp

I would be grateful if you could share the reported Papp for O=C(N[C@H]1CN(S(=O)(=O)c2ccccc2)C[C@@H]1C(=O)N[C@H]1CCCNC1)c1cc(-c2ccccc2Cl)on1 .
< 1 ×10⁻⁶ cm/s

* * *

- experiment.description: Oral bioavailability in Harlan-Han Wistar rat
- Type: ADME, organism-based
- protocol.conditions: in vivo
readout.type: bioavailability

I would be grateful if you could share the reported bioavailability for O=C(N[C@H]1CN(S(=O)(=O)c2ccccc2)C[C@@H]1C(=O)N[C@H]1CCCNC1)c1cc(-c2ccccc2Cl)on1 .
< 1%

* * *

- experiment.description: 1-octanol-aqueous buffer distribution coefficient, log D of the compound at pH 7.4
- Type: physicochemical
In this section, each of the compounds is paired with its reported logD.
Please give the numeric answer without any surrounding text.

compound.structure	logD
Cc1ccc2[nH]c(C(=O)N[C@H]3CN(S(=O)(=O)c4ccccc4)C[C@@H]3C(=O)N[C@@H]3CCCN(C)C3)cc2c1	2.7
Cc1ccc2[nH]c(C(=O)N[C@H]3CN(S(=O)(=O)c4ccccc4)C[C@@H]3C(=O)NCCN(C)C)cc2c1	2.1
Cc1ccc2[nH]c(C(=O)N[C@H]3CN(S(=O)(=O)C4CCOCC4)C[C@@H]3C(=O)NCCN(C)C)cc2c1	1
Cc1ccc2[nH]c(C(=O)N[C@H]3CCN(S(=O)(=O)N(C)C)C[C@@H]3C(=O)NCCN(C)C)cc2c1	1.2
Cc1ccc2[nH]c(C(=O)N[C@H]3CN(S(=O)(=O)c4ccccc4)C[C@@H]3C(=O)NC[C@H]3CCCN3C)cc2c1	2.3

I would be grateful if you could share the reported logD for Cc1ccc2[nH]c(C(=O)N[C@H]3CN(S(=O)(=O)c4cccnc4)C[C@@H]3C(=O)NCCN(C)C)cc2c1 .
1.4

I would be grateful if you could share the reported logD for Cc1ccc2[nH]c(C(=O)N[C@H]3CN(S(=O)(=O)c4ccccc4)C[C@@H]3C(=O)N[C@H]3CCCN(C)C3)cc2c1 .
2.7
